Experimental Details: Human HepG2 cell viability assay in 384 well format
Assay type: toxicity, cell-based
Set-up: dose 125 nL, time 70.5 hour; concentration not given beside the values
Details: HepG2 cells, read-out: Inhibition
Readout Name: cytotoxicity at 70.5 h (%)
Expressed in %, but write only the number.

Example entries begin here.
Answer with reported cytotoxicity at 70.5 h of O=C(NCc1cccs1)C1CN(C(=O)c2cccs2)CC12CCOCC2 (stereo not given) -8.67

Give the reported cytotoxicity at 70.5 h for this compound. Cc1nn(C)c(N(C)C)c1CNCC(O)COc1cccc(F)c1 (stereo not given) -11.4

Identify measured cytotoxicity at 70.5 h associated with CCCN(CCc1ccccn1)C(=O)CCc1cnn(C)c1 -10.1

Answer with the recorded cytotoxicity at 70.5 h of CC(Cc1cccc(F)c1)C(=O)NS(=O)(=O)c1cnn(C)c1 (stereo not given) only. -1.2

More entries:
Give me measured cytotoxicity at 70.5 h, please, for this compound: Cc1ncc2c(n1)CN(Cc1nc(-c3ccco3)oc1C)CC2 -10.5

---

cytotoxicity at 70.5 h overview
Experimental Details: Human HepG2 cell viability assay in 384 well format
Type: toxicity, cell-based
Parameters: dose 125 nL, time 70.5 hour; concentration not given beside the values
Details: HepG2 cells, read-out: Inhibition
Entry rule: numbers only, all in %.

Give me measured cytotoxicity at 70.5 h, please, for this compound: CCc1ncncc1C(=O)N1CCOC(c2nc(C)n[nH]2)C1 (configuration not stated) -3

Return reported cytotoxicity at 70.5 h. Input compound: COc1cccc(CC(=O)NC(C)c2nc3cccnc3n2C(C)C)c1 (configuration not stated) -2.69

---
Look up and report measured cytotoxicity at 70.5 h for this entry: CS(=O)(=O)NCC1CCCN(C(=O)COCc2ccccc2)C1 (configuration not stated) -12.3

---

Experimental Details: Human HepG2 cell viability assay in 384 well format
Type: toxicity, cell-based
Design: dose 125 nL, time 70.5 hour; concentration not given beside the values
Details: HepG2 cells, read-out: Inhibition
Here, each record is paired with measured cytotoxicity at 70.5 h data.
Just the number please, in %, no unit attached.

State, in one line, measured cytotoxicity at 70.5 h of CC(C)c1nccn1C1CCCN(C(=O)c2ccc3[nH]nnc3c2)C1 (centres undefined) 30.1

New cases:
Please report the measured cytotoxicity at 70.5 h for Cc1c(C2SCC(=O)Nc3c2c(O)nn3C2CCCC2)cnn1C (centres undefined) -22.8

Give cytotoxicity at 70.5 h for the following molecule: COc1ccc2nnc(CCCC(=O)Nc3nc4c(s3)CCC4)n2n1 -17.4

Note down cytotoxicity at 70.5 h recorded for CC(C)c1ccc(N2CCc3onc(-c4ccc(F)c(F)c4)c3C2)nn1 -6.74

In one line, give reported cytotoxicity at 70.5 h of the entry CCCC(=O)N(CCCN1CCOCC1)c1nc2c(C)c(C)ccc2s1 . -14.7

Could you please provide reported cytotoxicity at 70.5 h for COc1ccccc1C(O)CNC(=O)NCc1cccnc1OC (centres undefined) ? Thanks! 6.04

Please look at this molecule and report its cytotoxicity at 70.5 h: Cc1noc(C)c1C(=O)N(C)C(C)c1ccc(S(C)(=O)=O)cc1 (centres undefined) -20.5

Retrieve cytotoxicity at 70.5 h measured for CCCc1ccc(CN2CCN(C(=O)C(C)C)[C@@H]3CS(=O)(=O)C[C@@H]32)o1 and print it. -6.33

// fetch cytotoxicity at 70.5 h given entry Cc1nc(C2CCCN2CC(=O)NCCOc2cccc(F)c2)no1 (centres undefined) 19.2
